Molecular target: hCB1 (Homo sapiens, UniProt P21554)
Sequence (P21554 whole entry): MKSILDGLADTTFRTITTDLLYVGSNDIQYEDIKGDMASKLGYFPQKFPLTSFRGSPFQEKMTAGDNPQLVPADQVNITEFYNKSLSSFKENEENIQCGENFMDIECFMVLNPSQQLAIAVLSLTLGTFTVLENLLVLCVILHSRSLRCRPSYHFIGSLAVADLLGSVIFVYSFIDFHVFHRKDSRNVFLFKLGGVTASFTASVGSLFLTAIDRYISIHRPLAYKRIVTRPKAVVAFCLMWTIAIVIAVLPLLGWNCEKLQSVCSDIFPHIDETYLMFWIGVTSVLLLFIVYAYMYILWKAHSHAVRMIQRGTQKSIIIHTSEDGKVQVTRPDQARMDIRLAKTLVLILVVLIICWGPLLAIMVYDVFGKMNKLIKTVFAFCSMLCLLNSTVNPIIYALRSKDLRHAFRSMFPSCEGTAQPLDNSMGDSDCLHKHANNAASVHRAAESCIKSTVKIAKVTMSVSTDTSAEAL
Test: bioSensAll ebBRET signaling profiling, hCB1
Type: cell-based
Parameters: host or cells: HEK293SL cells, transient PEI transfection
Conditions: Barr2+GRK2 biosensor; Log [Compound] (M) -8.39794
metric name: Barr2+GRK2 hCB1 response
// no unit, no text: just the number

Worked examples follow.
Cc1c(C(=O)OCC2CSc3ccccc3O2)cnn1Cc1ccccc1 (stereo not drawn) : -42.7722
Cn1nc(-c2nnc(C(C)(C)Oc3ccc(Cl)cc3)o2)c2ccccc2c1=O : -31.2856
Cc1nc(CC2CC2)oc1-c1nc(Cc2cc3c(cc2Br)OCO3)no1 : 2.217
Brc1cc2c(cc1Cc1noc(-c3cnn(CC4CC4)c3)n1)OCO2 : -34.7954
Cc1nn(Cc2ccc(Cl)cc2)c(C)c1C(=O)OCC1CSc2ccccc2O1 (stereo not drawn) : -23.3088

### Prompt # get_value(readout='Barr2+GRK2 hCB1 response', item= Cn1nc(-c2nnc(C(C)(C)Oc3ccc(C(F)(F)F)cc3)o2)c2ccccc2c1=O )
### Response -37.9861

Just for reference, paper PMC11882969 is where these values come from.
